Sourced from patent US9242999B2

Test system: E. coli ATCCBAA-199
test details: MIC, CLSI broth microdilution, cation-adjusted Mueller Hinton broth with human apo-transferrin (Test Example 1)
Format: cell-based
experimental setup: Escherichia coli, ATCCBAA199, Table 2, SHV-3 ESBL producing strain, inoculum 5×10^5 cfu/mL, read-out: Minimum Inhibitory Concentration (MIC) E. coli ATCC BAA-199
Provide the reported MIC of each item.
Express your answer in µg/mL, writing the number without its unit.

Problem: Request the reported MIC associated with C[C@H](O/N=C(\C(=O)N[C@@H]1C(=O)N2C(c3nnn[n-]3)=C(CSc3cc[n+](CC(=O)c4ccc(O)c(O)c4)cc3)CO[C@H]12)c1nc(N)sc1Cl)C(=O)O
Solution: 0.063

Problem: Request the reported MIC associated with CC(C)(O/N=C(\C(=O)N[C@@H]1C(=O)N2C(C(=O)[O-])=C(CSc3cc[n+](CC(=O)c4ccc(O)c(O)c4)cc3)CS[C@H]12)c1csc(N)n1)C(=O)O [Comparative Compound 1, reference compound]
Solution: 1

Problem: Request the reported MIC associated with CC(C)(O/N=C(\C(=O)N[C@@H]1C(=O)N2C(c3nnn[n-]3)=C(CSc3cc[n+](CC(=O)c4ccc(O)c(O)c4)cc3)CS[C@H]12)c1nsc(N)n1)C(=O)O
Solution: 0.125

---

System: E. coli ATCCBAA-200
test details: MIC, CLSI broth microdilution, cation-adjusted Mueller Hinton broth with human apo-transferrin (Test Example 1)
Type: cell-based
experimental setup: Escherichia coli, ATCCBAA200, Table 2, SHV-4 ESBL producing strain, inoculum 5×10^5 cfu/mL, read-out: Minimum Inhibitory Concentration (MIC) E. coli ATCC BAA-200
assay metric: MIC (µg/mL)
Express your answer in µg/mL, writing the number without its unit.

Problem: Request the reported MIC associated with CC(C)(O/N=C(\C(=O)N[C@@H]1C(=O)N2C(C(=O)[O-])=C(CSc3cc[n+](CC(=O)c4ccc(O)c(O)c4)cc3)CS[C@H]12)c1csc(N)n1)C(=O)O [Comparative Compound 1, reference compound]
Solution: 2

Problem: Request the reported MIC associated with CC(C)(O/N=C(\C(=O)N[C@@H]1C(=O)N2C(c3nnn[n-]3)=C(CSc3cc[n+](CC(=O)c4ccc(O)c(O)c4)cc3)CS[C@H]12)c1nsc(N)n1)C(=O)O [Compound I-4]
Solution: 0.25

Problem: Request the reported MIC associated with C[C@H](O/N=C(\C(=O)N[C@@H]1C(=O)N2C(c3nnn[n-]3)=C(CSc3cc[n+](CC(=O)c4ccc(O)c(O)c4)cc3)CO[C@H]12)c1nc(N)sc1Cl)C(=O)O [Compound I-8]
Solution: 0.25

Problem: Request the reported MIC associated with C[C@H](O/N=C(\C(=O)N[C@@H]1C(=O)N2C(c3nnn[n-]3)=C(CSc3cc[n+](CC(=O)c4ccc(O)c(O)c4)cc3)CS[C@H]12)c1nc(N)sc1Cl)C(=O)O [Compound I-5]
Solution: 0.063

---

Provide the reported MIC of each item.
System: A. baumannii SR27323
test details: MIC, CLSI broth microdilution, cation-adjusted Mueller Hinton broth with human apo-transferrin (Test Example 1)
Assay type: cell-based
experimental setup: Acinetobacter baumannii, SR27323, Table 2, OXA-23, OXA-58 carbapenemase producing strain, inoculum 5×10^5 cfu/mL, read-out: Minimum Inhibitory Concentration (MIC) A. baumannii SR27323
Express your answer in µg/mL, writing the number without its unit.

Problem: Request the reported MIC associated with CC(C)(O/N=C(\C(=O)N[C@@H]1C(=O)N2C(c3nnn[n-]3)=C(CSc3cc[n+](CC(=O)c4ccc(O)c(O)c4)cc3)CS[C@H]12)c1nsc(N)n1)C(=O)O
Solution: 1

Problem: Request the reported MIC associated with C[C@H](O/N=C(\C(=O)N[C@@H]1C(=O)N2C(c3nnn[n-]3)=C(CSc3cc[n+](CC(=O)c4ccc(O)c(O)c4)cc3)CS[C@H]12)c1nc(N)sc1Cl)C(=O)O
Solution: 0.5

Problem: Request the reported MIC associated with CC(C)(O/N=C(\C(=O)N[C@@H]1C(=O)N2C(C(=O)[O-])=C(CSc3cc[n+](CC(=O)c4ccc(O)c(O)c4)cc3)CS[C@H]12)c1csc(N)n1)C(=O)O [Comparative Compound 1, reference compound]
Solution: 0.5

Problem: Request the reported MIC associated with C[C@H](O/N=C(\C(=O)N[C@@H]1C(=O)N2C(c3nnn[n-]3)=C(CSc3cc[n+](CC(=O)c4ccc(O)c(O)c4)cc3)CO[C@H]12)c1nc(N)sc1Cl)C(=O)O
Solution: 2

Problem: Request the reported MIC associated with CC(C)(O/N=C(\C(=O)N[C@@H]1C(=O)N2C(c3nnn[n-]3)=C(CSc3cc[n+](-c4ccc(O)c(O)c4)cc3)CS[C@H]12)c1csc(N)n1)C(=O)O
Solution: 0.125

Problem: Request the reported MIC associated with CC(C)(O/N=C(\C(=O)N[C@@H]1C(=O)N2C(c3nnn[n-]3)=C(CSc3cc[n+](CC(=O)c4ccc(O)c(O)c4)cc3)C[S+]([O-])[C@H]12)c1csc(N)n1)C(=O)O (stereo partly drawn)
Solution: 2

---

System: E. coli ATCCBAA-200
test details: MIC, CLSI broth microdilution, cation-adjusted Mueller Hinton broth with human apo-transferrin (Test Example 1)
Format: cell-based
experimental setup: Escherichia coli, ATCCBAA200, Table 2, SHV-4 ESBL producing strain, inoculum 5×10^5 cfu/mL, read-out: Minimum Inhibitory Concentration (MIC) E. coli ATCC BAA-200
Provide the reported MIC of each item.

Problem: Request the reported MIC associated with CC(C)(O/N=C(\C(=O)N[C@@H]1C(=O)N2C(c3nnn[n-]3)=C(CSc3cc[n+](-c4ccc(O)c(O)c4)cc3)CS[C@H]12)c1csc(N)n1)C(=O)O
Solution: ≤ 0.031 µg/mL

Problem: Request the reported MIC associated with CC(C)(O/N=C(\C(=O)N[C@@H]1C(=O)N2C(c3nnn[n-]3)=C(CSc3cc[n+](Cc4ccc(O)c(O)c4)cc3)CS[C@H]12)c1csc(N)n1)C(=O)O
Solution: ≤ 0.031 µg/mL

Problem: Request the reported MIC associated with CC(C)(O/N=C(\C(=O)N[C@@H]1C(=O)N2C(c3nnn[n-]3)=C(CSc3cc[n+](CC(=O)c4ccc(O)c(O)c4)cc3)C[S+]([O-])[C@H]12)c1csc(N)n1)C(=O)O (stereo partly drawn)
Solution: ≤ 0.031 µg/mL
